As shown below, each of these compounds has a reported ΔvQy value.
# assay-protocol: Absorption spectroscopy of chlorins (B and Qy bands, log ε, B/Qy ratio)
# Assay type: physicochemical
# test-conditions: Example 2 Table 2; redshift relative to the parent chlorin (ZnC or Zn-M^10); toluene
Reply with just the number (in cm⁻¹).

Use these answered entries as a reference point.
Cc1cc(C)c(C2=c3cc(C#C[Si](C(C)C)(C(C)C)C(C)C)c4[n]3[Zn][n]3c(ccc3C=C3N=C(C=4)CC3(C)C)C=C3C=CC2=N3)c(C)c1 [ZnC-M^10E^13] | 530
CC(=O)c1cc2[n]3c1C=C1CC(C)(C)C(=N1)C=c1cc(C#C[Si](C(C)C)(C(C)C)C(C)C)c([n]1[Zn]3)=CC1=NC(=C2c2c(C)cc(C)cc2C)C=C1 [ZnC-E^3M^10A^13] | 1160
Cc1cc(C)c(C2=c3cc(C#C[Si](C(C)C)(C(C)C)C(C)C)c4[n]3[Zn][n]3c(cc(C#C[Si](C(C)C)(C(C)C)C(C)C)c3C=C3C=CC2=N3)C=C2N=C(C=4)CC2(C)C)c(C)c1 [ZnC-E^3M^10E^13] | 1020
C=Cc1cc2[n]3c1C=C1C=CC(=N1)C(c1c(C)cc(C)cc1C)=c1ccc([n]1[Zn]3)=CC1=NC(=C2)C(C)(C)C1 | 400

Here's the next entry for you.
query: Need ΔvQy of CC(=O)c1cc2[n]3c1C=C1CC(C)(C)C(=N1)C=c1ccc([n]1[Zn]3)=CC1=NC(=C2c2c(C)cc(C)cc2C)C=C1 [ZnC-M^10A^13] , thanks.
result: 680

* * *

# assay-protocol: Absorption spectroscopy of chlorins (B and Qy bands, log ε, B/Qy ratio)
# Assay type: physicochemical
# test-conditions: in toluene at room temperature
readout-name: Qy band position (nm)
Reply with just the number (in nm).

Cc1cc(C)c(C2=c3cc(C#C[Si](C(C)C)(C(C)C)C(C)C)c4[n]3[Zn][n]3c(ccc3C=C3N=C(C=4)CC3(C)C)C=C3C=CC2=N3)c(C)c1 [ZnC-M^10E^13] | 626

query: Need Qy band position of CC(=O)c1cc2[n]3c1C=C1CC(C)(C)C(=N1)C=c1ccc([n]1[Zn]3)=CC1=NC(=C2c2c(C)cc(C)cc2C)C=C1 [ZnC-M^10A^13] , thanks.
result: 632

query: Next entry: CC(=O)c1cc2[n]3c1C=C1CC(C)(C)C(=N1)C=c1cc(C#C[Si](C(C)C)(C(C)C)C(C)C)c([n]1[Zn]3)=CC1=NC(=C2c2c(C)cc(C)cc2C)C=C1 [ZnC-E^3M^10A^13]
result: 652

* * *

# assay-protocol: Absorption spectroscopy of chlorins (B and Qy bands, log ε, B/Qy ratio)
# Type: physicochemical
# test-conditions: in toluene at room temperature
readout-name: Qy band position
Enter the number, and then the unit.

Use these answered entries as a reference point.
C=Cc1cc2[n]3c1C=C1C=CC(=N1)C(c1c(C)cc(C)cc1C)=c1ccc([n]1[Zn]3)=CC1=NC(=C2)C(C)(C)C1 | 621 nm
Cc1cc(C)c(C2=c3cc(C#C[Si](C(C)C)(C(C)C)C(C)C)c4[n]3[Zn][n]3c(cc(C#C[Si](C(C)C)(C(C)C)C(C)C)c3C=C3C=CC2=N3)C=C2N=C(C=4)CC2(C)C)c(C)c1 [ZnC-E^3M^10E^13] | 646 nm

Here's the next entry for you.
query: Need Qy band position of `Cc1ccc(-c2c3nc(c(-c4c(C)cc(C)cc4C)c4cc5c([nH]4)c(c4nc(cc6ccc2[nH]6)C(C)(C)C4)CC5=O)C=C3)cc1` , thanks.
result: 660 nm
